# targetSystem: Jak2 (UniProt O60674)
# Sequence (O60674 whole entry, looked up): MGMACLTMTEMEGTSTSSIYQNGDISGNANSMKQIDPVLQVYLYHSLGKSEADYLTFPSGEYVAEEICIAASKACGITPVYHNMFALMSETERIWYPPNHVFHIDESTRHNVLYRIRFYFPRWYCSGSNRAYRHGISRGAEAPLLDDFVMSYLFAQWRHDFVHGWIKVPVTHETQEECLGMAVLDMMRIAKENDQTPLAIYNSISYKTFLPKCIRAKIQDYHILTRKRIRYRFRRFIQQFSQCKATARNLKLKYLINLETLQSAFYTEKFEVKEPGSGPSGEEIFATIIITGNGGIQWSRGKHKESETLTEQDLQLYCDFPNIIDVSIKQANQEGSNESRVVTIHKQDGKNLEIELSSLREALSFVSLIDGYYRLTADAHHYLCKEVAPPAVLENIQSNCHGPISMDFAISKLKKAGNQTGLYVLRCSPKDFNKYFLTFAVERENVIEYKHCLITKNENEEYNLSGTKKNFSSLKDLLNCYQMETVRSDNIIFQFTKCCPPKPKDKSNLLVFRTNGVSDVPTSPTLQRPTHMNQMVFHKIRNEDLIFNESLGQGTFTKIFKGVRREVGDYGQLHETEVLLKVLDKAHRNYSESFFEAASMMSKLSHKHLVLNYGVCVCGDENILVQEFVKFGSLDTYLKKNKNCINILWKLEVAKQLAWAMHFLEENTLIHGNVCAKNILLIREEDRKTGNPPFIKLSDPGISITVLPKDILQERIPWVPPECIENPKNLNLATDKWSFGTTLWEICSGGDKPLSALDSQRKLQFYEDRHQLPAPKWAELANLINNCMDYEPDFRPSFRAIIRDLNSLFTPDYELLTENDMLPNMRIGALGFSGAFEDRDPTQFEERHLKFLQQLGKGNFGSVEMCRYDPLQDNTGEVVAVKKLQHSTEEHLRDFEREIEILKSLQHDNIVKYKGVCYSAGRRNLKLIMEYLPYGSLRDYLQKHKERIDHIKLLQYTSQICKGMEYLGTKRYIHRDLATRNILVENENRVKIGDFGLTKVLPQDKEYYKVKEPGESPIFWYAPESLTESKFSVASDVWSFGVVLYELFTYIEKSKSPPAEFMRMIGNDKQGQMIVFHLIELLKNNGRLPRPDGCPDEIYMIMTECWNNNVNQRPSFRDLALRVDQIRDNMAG
# procedureSummary: phosphorylation enrichment, bacterial display (enrichment ratio); higher = better substrate or ligand; peptides without Tyr show the background
Reported phosphorylation enrichment values for the following sequences.

Recorded results for 5 sequences are shown here.
macromoleculeSequence	targetSystem	phosphorylation enrichment
VTVLDYDKIGK [SYT1_Y365]	Jak2 (UniProt O60674)	0.501
SSLEDYVRETN [GIMAP6_Y176_G171S]	Jak2 (UniProt O60674)	0.92
SSPMKYQQNVS [EGFEM1P_Y160]	Jak2 (UniProt O60674)	0.623
LNTFHHAGVSA [POLR2A_Y1109_Y1109H]	Jak2 (UniProt O60674)	1.19
RHRSGYVLIAM [EFR3A_Y73]	Jak2 (UniProt O60674)	0.79

Problem: Name the recorded phosphorylation enrichment for SVICTYSPALN [TP53_Y126_T123I] .
Result: 1.03

Problem: Now the sequence TTGGFYSYGGG [KRT24_Y120_A115T]
Result: 0.763

Problem: Now the sequence LDPMVYMNDKS [PTK2B_Y834]
Result: 1.25

Problem: Now the sequence PTEAQYRFIYM [PTPN11_Y511_Q506P]
Result: 2.37

Problem: Now the sequence DISEPYEVYRI [IRF8_Y107_K108E]
Result: 0.912

Problem: Now the sequence RGSQQYRALPV [TUBB8_Y281_T285P]
Result: 0.789

Problem: Now the sequence GPIFRYDSGGA [CYP11B1_Y81_L83S]
Result: 0.69

Problem: Now the sequence SNNFIYKTLGV [FAM83B_Y639_YF]
Result: 0.639

Problem: Now the sequence PLDGEYSTLQI [TP53_Y327_F328S]
Result: 1.33

====

# targetSystem: EPHB1 (UniProt P54762)
# Sequence (P54762 whole entry, looked up): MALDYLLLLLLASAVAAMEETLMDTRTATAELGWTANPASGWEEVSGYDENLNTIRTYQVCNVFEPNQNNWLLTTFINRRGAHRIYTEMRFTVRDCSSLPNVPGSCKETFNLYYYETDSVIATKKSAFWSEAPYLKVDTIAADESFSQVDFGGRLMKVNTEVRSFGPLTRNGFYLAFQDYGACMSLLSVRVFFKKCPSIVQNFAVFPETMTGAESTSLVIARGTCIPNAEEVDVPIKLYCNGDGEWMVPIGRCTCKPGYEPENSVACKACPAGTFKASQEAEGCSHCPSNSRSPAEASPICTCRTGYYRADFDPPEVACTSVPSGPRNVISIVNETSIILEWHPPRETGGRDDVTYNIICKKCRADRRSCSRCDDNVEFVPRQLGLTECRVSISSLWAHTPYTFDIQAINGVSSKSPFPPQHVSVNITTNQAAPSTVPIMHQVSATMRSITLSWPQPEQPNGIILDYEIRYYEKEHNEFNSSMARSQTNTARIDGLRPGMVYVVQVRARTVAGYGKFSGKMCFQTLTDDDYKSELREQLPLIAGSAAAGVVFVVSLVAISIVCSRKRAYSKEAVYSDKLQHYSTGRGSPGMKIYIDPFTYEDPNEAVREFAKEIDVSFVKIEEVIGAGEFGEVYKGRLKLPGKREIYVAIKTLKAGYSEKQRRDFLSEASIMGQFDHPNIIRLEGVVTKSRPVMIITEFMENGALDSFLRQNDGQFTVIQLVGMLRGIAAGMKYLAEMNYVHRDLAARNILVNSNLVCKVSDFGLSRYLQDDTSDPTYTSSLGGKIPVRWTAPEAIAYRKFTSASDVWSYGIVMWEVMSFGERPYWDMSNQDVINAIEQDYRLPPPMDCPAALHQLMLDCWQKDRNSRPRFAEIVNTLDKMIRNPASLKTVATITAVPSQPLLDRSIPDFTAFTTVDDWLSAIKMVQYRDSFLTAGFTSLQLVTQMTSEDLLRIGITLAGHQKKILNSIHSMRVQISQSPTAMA
# procedureSummary: phosphorylation enrichment, bacterial display (enrichment ratio); higher = better substrate or ligand; peptides without Tyr show the background
Label Yes when phosphorylation enrichment is at or above 0.5; anything below gets No.

Here are 5 sequences together with their reported answers.
macromoleculeSequence	assignedClass
SGGSSYGSGGG [KRT1_Y532]	No
IFGVSYGEYRY [CFTR_Y512_D513G]	Yes
HHTNEYEFDEL [TGM1_Y134_D132N_YF]	Yes
HSVVQYVGGVM [FGGY_Y136_L134V]	Yes
DDKQPYEKKAE [HMGB1_Y144_A149E]	Yes

Problem: For this sequence, is measured phosphorylation enrichment 0.5 or higher? GSTLSYFGLAT [P2RX7_Y343_A348T]
Result: Yes

Problem: Now the sequence FLKDVYVDSKD [NDUFAF4_Y69]
Result: No

Problem: Now the sequence WRPFGYPRCRR [BCS1L_Y181_R184C]
Result: No

====

# targetSystem: Grb2 SH2 (UniProt P62993)
# Sequence (P62993 whole entry, looked up): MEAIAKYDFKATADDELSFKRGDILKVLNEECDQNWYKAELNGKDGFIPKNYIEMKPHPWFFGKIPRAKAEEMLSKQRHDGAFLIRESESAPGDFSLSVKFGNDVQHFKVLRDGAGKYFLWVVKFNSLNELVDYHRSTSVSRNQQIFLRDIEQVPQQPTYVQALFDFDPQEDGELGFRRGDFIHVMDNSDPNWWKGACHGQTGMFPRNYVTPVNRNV
# procedureSummary: SH2 binding enrichment of the phosphorylated peptide, bacterial display (enrichment ratio); higher = better substrate or ligand; peptides without Tyr show the background
measuredMetric: SH2 binding enrichment
# output: bare number, no unit

Recorded results for 5 sequences are shown here.
macromoleculeSequence	reportedValue
DDKQPYEKKAE [HMGB1_Y144_A149E]	1.09
SGGSSYGSGGG [KRT1_Y532]	0.871
DLVRPYVHKIL [SF3B1_Y570]	0.849
TKLKDYFIFNK [CCDC42_Y149_A144T_YF]	0.773
GKSDPYHATTG [GJA1_Y247_S251T]	0.771

Problem: Name the recorded SH2 binding enrichment for PDGREYIFVDP [PDGFRA_Y572_H570R_YF] .
Result: 0.789

Problem: Now the sequence VECHPYFTQPK [AKR1D1_Y199]
Result: 0.765

Problem: Now the sequence GGTTLYPGIAD [ACTC1_Y308_M307L]
Result: 0.762

Problem: Now the sequence AQINLYQDVML [ZNF806_Y33]
Result: 0.886

Problem: Now the sequence TNEFEYDELIV [TGM1_Y136_D132N_YF]
Result: 0.804
